EXPERIMENT_DESCRIPTION: Plasma concentration in Harlan C57BL/6 mouse at 20 mg/kg, sc after 1 hr by LC/MS/MS analysis
Format: ADME, organism-based
Set-up: dose 20 mg/kg, route subcutaneous

{"columns": ["SMILES_NOTATION", "concentration at 1 h [ng/mL]"],
 "data": [
  ["NCCCCN(C[C@H]1Cc2ccccc2CN1)[C@H]1CCCc2cccnc21", 1540]
]}

----------
EXPERIMENT_DESCRIPTION: Half life in rat liver microsomes at 1 uM incubated for 3 mins prior to NADPH addition by LC-MS/MS analysis
Assay type: ADME
QUANTITY_MEASURED: half-life at 1 µM (min)

{"columns": ["SMILES_NOTATION", "UNIT_INFO", "VALUE_MEASURED"],
 "data": [
  ["NCCCCN(C[C@H]1Cc2ccccc2CN1)[C@H]1CCCc2cccnc21", "min", 39]
]}

----------
EXPERIMENT_DESCRIPTION: AUC (0 to infinity) in jugular pre-cannulated CRL Sprague-Dawley rat at 10 mg/kg, po
Assay type: ADME, organism-based
Design: dose 10 mg/kg, route oral, time infinity
MEASUREMENT_CONTEXT: plasma

{"columns": ["SMILES_NOTATION", "AUC(0-inf) (ng·h/mL)"],
 "data": [
  ["NCCCCN(C[C@H]1Cc2ccccc2CN1)[C@H]1CCCc2cccnc21", 328]
]}

----------
EXPERIMENT_DESCRIPTION: AUC (0 to infinity) in jugular pre-cannulated Harlan Sprague-Dawley rat at 2 mg/kg, iv
Format: ADME, organism-based
Design: time infinity, dose 2 mg/kg, route intravenous
MEASUREMENT_CONTEXT: plasma
QUANTITY_MEASURED: AUC(0-inf)

{"columns": ["SMILES_NOTATION", "QUANTITY_MEASURED", "VALUE_MEASURED"],
 "data": [
  ["NCCCCN(C[C@H]1Cc2ccccc2CN1)[C@H]1CCCc2cccnc21", "AUC(0-inf)", "108 ng·h/mL"]
]}

----------
EXPERIMENT_DESCRIPTION: Plasma concentration in Harlan C57BL/6 mouse at 10 mg/kg, sc after 1 hr by LC/MS/MS analysis
Format: ADME, organism-based
Design: dose 10 mg/kg, route subcutaneous
QUANTITY_MEASURED: concentration at 1 h (ng/mL)

{"columns": ["SMILES_NOTATION", "QUANTITY_MEASURED", "VALUE_MEASURED"],
 "data": [
  ["NCCCCN(C[C@H]1Cc2ccccc2CN1)[C@H]1CCCc2cccnc21", "concentration at 1 h", 1020]
]}

----------
Below, each entry is listed with its recorded CC50.
EXPERIMENT_DESCRIPTION: Cytotoxicity against human MAGI-CCR5 cells assessed as cell viability after 2 to 6 days by MTS assay
MEASUREMENT_CONTEXT: MAGI-CCR5 cells
QUANTITY_MEASURED: CC50

{"columns": ["SMILES_NOTATION", "VALUE_MEASURED"],
 "data": [
  ["NCCCCN(C[C@@H]1Cc2ccccc2CN1)[C@H]1CCCc2cccnc21", "> 10 µM"],
  ["NCCCCN(C[C@H]1Cc2ccccc2CN1Cc1ccccn1)[C@H]1CCCc2cccnc21", "> 10 µM"],
  ["CN(C)CCCCN(C[C@H]1Cc2ccccc2CN1)[C@H]1CCCc2cccnc21", "> 10 µM"],
  ["NCCCCN(C[C@H]1Cc2ccccc2CN1Cc1cccnc1)[C@H]1CCCc2cccnc21", "> 10 µM"],
  ["NCCCCN(C[C@H]1Cc2ccccc2CN1)[C@H]1CCCc2cccnc21", "> 10 µM"]
]}
